Assay: total protein half-life in vivo (active degradation + dilution); higher = more stable protein
Details: E. coli NCM3722 delta-clpP; growth: N-lim chemostat; doubling time 6 h
measurement.type: total protein half-life in vivo

input.sequence	recorded.value
MIRQRRRALTPEQQQEMGQQAATRMMTYPPVVMAHTVAVFLSFDGELDTQPLIEQLWRAGKRVYLPVLHPFSAGNLLFLNYHPQSELVMNRLKIHEPKLDVRDVLPLSRLDVLITPLVAFDEYGQRLGMGGGFYDRTLQNWQHYKTQPVGYAHDCQLVEKLPVEEWDIPLPAVVTPSKVWEW [P0AC28]	3.88 h
MIVRPQQHWLRRIFVWHGSVLSKISSRLLLNFLFSIAVIFMLPWYTHLGIKFTLAPFSILGVAIAIFLGFRNNAGYARYVEARKLWGQLMIASRSLLREVKTTLPDSASVREFARLQIAFAHCLRMTLRKQPQAEVLAHYLKTEDLQRVLASNSPANRILLIMGEWLAVQRRNGQLSDILFISLNDRLNDISAVLAGCERIAYTPIPFAYTLILHRTVYLFCIMLPFALVVDLHYMTPFISVLISYTFISLDCLAEELEDPFGTENNDLPLDAICNAIEIDLLQMNDEAEIPAKILPDRHYQLT	5.43 h
